# TESTED TARGET: ERα (Homo sapiens (Human), UniProt P03372)
# Sequence (P03372 whole entry): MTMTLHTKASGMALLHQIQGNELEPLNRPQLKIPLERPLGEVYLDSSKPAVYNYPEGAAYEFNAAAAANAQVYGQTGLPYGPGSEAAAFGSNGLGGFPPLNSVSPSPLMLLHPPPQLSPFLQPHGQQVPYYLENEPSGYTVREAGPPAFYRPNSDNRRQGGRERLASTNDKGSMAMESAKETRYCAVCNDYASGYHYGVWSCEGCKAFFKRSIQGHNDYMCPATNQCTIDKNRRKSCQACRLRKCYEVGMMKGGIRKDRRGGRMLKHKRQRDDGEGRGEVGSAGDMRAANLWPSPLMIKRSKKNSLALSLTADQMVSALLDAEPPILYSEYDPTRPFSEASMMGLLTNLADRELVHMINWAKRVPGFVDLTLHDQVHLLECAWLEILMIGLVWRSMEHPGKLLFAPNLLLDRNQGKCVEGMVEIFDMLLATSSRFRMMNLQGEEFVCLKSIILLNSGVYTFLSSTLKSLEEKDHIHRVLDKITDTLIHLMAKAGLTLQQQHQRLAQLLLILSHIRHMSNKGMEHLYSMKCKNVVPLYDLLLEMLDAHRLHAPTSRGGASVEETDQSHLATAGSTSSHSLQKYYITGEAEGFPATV
# METHOD: ERα degradation (MCF7 cells), in-cell Western
# Type: cell-based
# SETUP CONDITIONS: remaining ERα protein at 10 μM ligand, MCF7 cells, relative to DMSO control
MEASURE: % ERα remaining (%)
Number in %, nothing else.

// below: answered molecules
molecule="CC(F)c1ccccc1-c1sc2cc(O)ccc2c1Oc1ccc(/C=C/C(=O)O)cc1 (stereo not shown)" obs_value=17
molecule=CCCc1nnc(/C=C/c2ccc(Oc3c(-c4ccc(F)cc4C)sc4cc(O)ccc34)cc2)o1 obs_value=43
molecule=CNC(=O)/C=C/c1ccc(Oc2c(-c3ccc(O)cc3)sc3cc(O)ccc23)cn1 obs_value=41

Then there is this molecule:
Given item `O=C(/C=C/c1ccc(Oc2c(-c3ccc(F)cc3)sc3cc(O)ccc23)cc1)NCCC(F)(F)F` , the value recorded as its % ERα remaining is 32

---

# TESTED TARGET: ERα (Homo sapiens (Human))
# METHOD: ERα degradation (MCF7 cells), in-cell Western
# SETUP CONDITIONS: inflection point of the degradation in response to ligand concentration, MCF7 cells
Entries annotated with measured IC50

Below, 5 compounds whose answers are already recorded.
compound_structure_string=CC(C)(C)c1ccccc1-c1sc2cc(O)ccc2c1Oc1ccc(/C=C/C(=O)O)cc1 tested_target="ERα (Homo sapiens (Human))" obs_value="1 nM"
compound_structure_string=CC(C)c1ccccc1-c1sc2cc(O)ccc2c1Oc1ccc(CCC(=O)O)cc1 tested_target="ERα (Homo sapiens (Human))" obs_value="1.6 nM"
compound_structure_string=O=C(/C=C/c1ccc(Oc2c(-c3ccc(O)cc3)sc3cc(O)ccc23)cc1)NCCC(F)(F)F tested_target="ERα (Homo sapiens (Human))" obs_value="1 nM"
compound_structure_string=O=C(O)/C=C/c1ccc(Oc2c(-c3ccccc3C3COC3)sc3cc(O)ccc23)cc1 tested_target="ERα (Homo sapiens (Human))" obs_value="1.1 nM"
compound_structure_string=Cc1nnc(/C=C/c2ccc(Oc3c(-c4ccccc4C(C)C)sc4cc(O)ccc34)cc2)[nH]1 tested_target="ERα (Homo sapiens (Human))" obs_value="1.1 nM"

The reported value for `CCc1ccccc1-c1sc2cc(O)ccc2c1Oc1ccc(/C=C/C(=O)O)cc1` in terms of IC50 is 1 nM

// IC50 lookup, compound = `O=C(O)/C=C/c1ccc(Oc2c(-c3ccc(C(F)(F)F)cc3C(F)(F)F)sc3cc(O)ccc23)cc1` , result: 1 nM

The recorded IC50 for entry `Cn1nnc(Cc2ccccc2-c2sc3cc(O)ccc3c2Oc2ccc(/C=C/C(=O)O)cc2)n1` equals 1.7 nM

---

The reader will find reported % ERα remaining values listed item by item below.
# TESTED TARGET: ERα (Homo sapiens (Human))
# METHOD: ERα degradation (MCF7 cells), in-cell Western
# Format: cell-based
# SETUP CONDITIONS: remaining ERα protein at 10 μM ligand, MCF7 cells, relative to DMSO control
Report as a plain number; the unit % is understood.

Here is how some molecules turned out for % ERα remaining.
compound_structure_string=Cc1ccccc1-c1sc2cc(O)ccc2c1Oc1ccc(/C=C/C(=O)O)cc1 measure="% ERα remaining" obs_value=20
compound_structure_string=O=C(O)/C=C/c1ccc(Oc2c(-c3ccccc3C3CC3)sc3cc(O)ccc23)cc1 measure="% ERα remaining" obs_value=16
compound_structure_string=CCC(=O)Oc1ccc2c(Oc3ccc(/C=C/C(=O)O)cc3)c(-c3ccccc3C(C)C)sc2c1 measure="% ERα remaining" obs_value=11
compound_structure_string=CC(F)(F)c1ccccc1-c1sc2cc(O)ccc2c1Oc1ccc(/C=C/C(=O)O)cc1 measure="% ERα remaining" obs_value=15

`O=C(O)/C=C/c1ccc(Oc2c(-c3ccc(O)cc3)sc3cc(O)ccc23)cn1` has a reported % ERα remaining of 26

GET /value?item= `Cn1nnc(Cc2ccccc2-c2sc3cc(O)ccc3c2Oc2ccc(/C=C/C(=O)O)cc2)n1` &field=% ERα remaining returns 14

`Cc1cc(/C=C/C(=O)O)ccc1Oc1c(-c2ccc(O)cc2)sc2cc(O)ccc12` has a reported % ERα remaining of 37

Query `O=C(O)/C=C/c1ccc(Oc2c(-c3ccccc3C3COC3)sc3cc(O)ccc23)cc1` yields % ERα remaining of 15

# molecule `O=C(O)/C=C/c1ccc(Oc2c(-c3ccc(OC(F)(F)F)cc3)sc3cc(O)ccc23)cc1` ; its % ERα remaining = 17

Looking up `O=C(/C=C/c1ccc(Oc2c(-c3ccc(O)cc3)sc3cc(O)ccc23)cc1)NCCO` , I found its % ERα remaining recorded as 47

Entry `Cc1occc1-c1sc2cc(O)ccc2c1Oc1ccc(/C=C/C(=O)O)cc1` , % ERα remaining reported as 12
